test: Cmax value at a dose of 10 mg/kg peroral administration in mice.; format: ADME, organism-based; design: dose 10 mg/kg, route oral; details: mouse, in vivo, po
experimentalEndpoint: Cmax
A complete answer gives the number followed by the unit.

Q: Cmax for CC(C)(C)c1cnc(CSc2cnc(NC(=O)Cc3ccc(CNC(CO)CO)cc3)s2)o1 ?
A: 635 nM

---

test system: LNCaP; experiment: Inhibition of LNCaP human prostate carcinoma cell proliferation; format: functional, cell-based
experimentalEndpoint: IC50 (nM)
The figure you give is taken to be in nM; do not add the unit.

Q: IC50 for CN1CC[C@H](c2c(O)cc(O)c3c(=O)cc(-c4ccccc4Cl)oc23)[C@H](O)C1 ?
A: 16
